Parameter residual activity: see the listing below.
System: Mast/stem cell growth factor receptor Kit (Homo sapiens), P10721 [D816H]
Sequence (P10721 whole entry D816H): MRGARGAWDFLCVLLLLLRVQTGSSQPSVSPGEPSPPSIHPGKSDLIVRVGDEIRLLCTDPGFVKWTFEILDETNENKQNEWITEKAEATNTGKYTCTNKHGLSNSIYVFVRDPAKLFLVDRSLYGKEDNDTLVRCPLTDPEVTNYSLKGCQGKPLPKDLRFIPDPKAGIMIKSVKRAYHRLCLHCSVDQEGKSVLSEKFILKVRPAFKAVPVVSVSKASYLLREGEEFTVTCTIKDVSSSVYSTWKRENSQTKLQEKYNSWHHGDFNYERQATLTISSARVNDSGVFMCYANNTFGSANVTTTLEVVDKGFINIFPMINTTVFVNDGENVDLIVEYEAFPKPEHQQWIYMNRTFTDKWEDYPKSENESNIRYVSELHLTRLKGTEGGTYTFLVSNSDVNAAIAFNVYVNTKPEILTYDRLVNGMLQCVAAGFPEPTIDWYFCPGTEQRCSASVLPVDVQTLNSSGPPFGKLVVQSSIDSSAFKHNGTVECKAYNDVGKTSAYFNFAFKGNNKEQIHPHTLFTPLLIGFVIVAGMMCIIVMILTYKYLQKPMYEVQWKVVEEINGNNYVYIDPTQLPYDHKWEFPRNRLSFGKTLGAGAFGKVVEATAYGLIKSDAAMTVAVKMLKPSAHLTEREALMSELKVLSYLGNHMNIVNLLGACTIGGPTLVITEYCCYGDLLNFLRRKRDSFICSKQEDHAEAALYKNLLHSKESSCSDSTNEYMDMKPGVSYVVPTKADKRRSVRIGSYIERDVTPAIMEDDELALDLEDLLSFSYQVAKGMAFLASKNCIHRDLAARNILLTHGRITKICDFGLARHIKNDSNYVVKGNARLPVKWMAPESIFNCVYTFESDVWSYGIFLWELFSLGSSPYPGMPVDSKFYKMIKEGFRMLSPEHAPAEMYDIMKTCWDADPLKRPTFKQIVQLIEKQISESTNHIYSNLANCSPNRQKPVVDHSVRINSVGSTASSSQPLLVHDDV
assay.summary: Inhibition of c-KIT D816H mutant (unknown origin) at 1 uM by KINOMEscanning assay relative to control; values are per cent of control
Express it in %; write the number only.

Return reported residual activity; argument: "COc1ccc(-c2c[nH]c3ncc(-c4cc(OC)c(OC)c(OC)c4)cc23)cc1OC"
25

// repeat for "COc1ccc(-c2cnc3[nH]cc(-c4ccc(OC)c(OC)c4)c3c2)cc1N" and report
51

// repeat for "COc1ccc(-c2cnc3[nH]cc(-c4ccc(OC)c(OC)c4)c3c2)cc1OC" and report
16

// repeat for "COc1cc(-c2c[nH]c3ncc(-c4cccc(N)c4)cc23)cc(OC)c1OC" and report
85

// repeat for "COc1ccc(-c2c[nH]c3ncc(-c4ccc(C(=O)N5CCOCC5)c(N)c4)cc23)cc1OC" and report
25

###

Parameter residual activity: see the listing below.
test.system: Inhibitor of nuclear factor kappa-B kinase subunit alpha (Homo sapiens)
Sequence (whole entry): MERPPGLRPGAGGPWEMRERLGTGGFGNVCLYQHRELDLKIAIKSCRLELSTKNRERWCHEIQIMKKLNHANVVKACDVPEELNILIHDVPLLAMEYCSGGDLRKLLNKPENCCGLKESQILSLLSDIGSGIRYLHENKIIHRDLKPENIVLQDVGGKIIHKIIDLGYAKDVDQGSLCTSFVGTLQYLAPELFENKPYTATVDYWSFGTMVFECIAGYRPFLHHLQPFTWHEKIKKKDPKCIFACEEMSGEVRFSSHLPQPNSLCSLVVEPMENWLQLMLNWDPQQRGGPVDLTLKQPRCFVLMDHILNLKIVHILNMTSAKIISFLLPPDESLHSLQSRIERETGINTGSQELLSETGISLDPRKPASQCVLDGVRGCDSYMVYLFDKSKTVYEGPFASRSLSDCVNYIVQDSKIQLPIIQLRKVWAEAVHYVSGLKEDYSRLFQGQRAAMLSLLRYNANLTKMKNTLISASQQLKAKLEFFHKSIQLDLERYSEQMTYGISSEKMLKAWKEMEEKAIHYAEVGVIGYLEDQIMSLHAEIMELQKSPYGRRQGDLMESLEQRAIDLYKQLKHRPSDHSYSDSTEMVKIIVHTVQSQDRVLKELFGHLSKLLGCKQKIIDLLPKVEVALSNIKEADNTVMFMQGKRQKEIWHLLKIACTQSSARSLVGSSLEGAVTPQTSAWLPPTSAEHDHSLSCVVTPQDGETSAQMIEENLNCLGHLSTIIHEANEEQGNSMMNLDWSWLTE
assay.summary: Inhibition of IKKalpha (unknown origin) at 1 uM by KINOMEscanning assay relative to control; values are per cent of control
Express it in %; write the number only.

• COc1ccc(-c2cnc3[nH]cc(-c4ccc(OC)c(OC)c4)c3c2)cc1N = 26

Proceeding to the next compound to report its residual activity.
Return reported residual activity; argument: "COc1cc(-c2c[nH]c3ncc(-c4cccc(N)c4)cc23)cc(OC)c1OC"
46

###

test.system: Phosphatidylinositol 4,5-bisphosphate 3-kinase catalytic subunit beta isoform (Homo sapiens)
assay.summary: Inhibition of PI3Kbeta (unknown origin) at 1 uM by KINOMEscanning assay relative to control; values are per cent of control
measurement.type: residual activity (%)
Express it in %; write the number only.

Some solved entries appear below for comparison.
• COc1ccc(-c2c[nH]c3ncc(-c4ccc(C(=O)N5CCOCC5)c(N)c4)cc23)cc1OC = 95
• COc1ccc(-c2c[nH]c3ncc(-c4cc(OC)c(OC)c(OC)c4)cc23)cc1OC = 94
• COc1ccc(-c2cnc3[nH]cc(-c4ccc(OC)c(OC)c4)c3c2)cc1OC = 100

Return reported residual activity; argument: "COc1ccc(-c2cnc3[nH]cc(-c4ccc(OC)c(OC)c4)c3c2)cc1N"
93

// repeat for "COc1cc(-c2c[nH]c3ncc(-c4cccc(N)c4)cc23)cc(OC)c1OC" and report
87
